# Method: in vivo
# Experimental Parameters: mouse, iv
Structures can show the parent of a compound that is named as a salt.
hey, just use class 1 if measured LD50 is less than 100 mg/kg, otherwise class 0

[[record]]
compound = "CCCCN(C)CC(O)COc1cn(C)c(=O)c2ccccc12 (stereo not drawn) [Example 11]"
category = "class 0"

[[record]]
compound = "CN1CCN(CC(O)COc2cn(C)c(=O)c3ccccc23)CC1 (stereo not drawn) [Example 12]"
category = "class 0"

[[record]]
compound = "Cn1cc(OCC(O)CN2CCCCC2)c2ccccc2c1=O (stereo not drawn) [Example 9, hydrochloride]"
category = "class 0"

[[record]]
compound = "CC(C)[N+](C)(C)CC(O)COc1cn(C)c(=O)c2ccccc12 (stereo not drawn) [Example 14]"
category = "class 1"

[[record]]
compound = "CC[N+](C)(C)CC(O)COc1cn(C)c(=O)c2ccccc12 (stereo not drawn) [Example 15]"
category = "class 1"

[[record]]
compound = "Cn1cc(OCC(O)CNC(C)(C)C)c2ccccc2c1=O (stereo not drawn) [Example 2, hydrochloride]"
category = "class 0"

[[record]]
compound = "CC(C)NCC(O)COc1cn(C)c(=O)c2ccccc12 (stereo not drawn) [Example 1]"
category = "class 0"

[[record]]
compound = "Cn1cc(OCC(O)CNCc2ccccc2)c2ccccc2c1=O (stereo not drawn) [Example 7, hydrochloride]"
category = "class 0"

[[record]]
compound = "CCCNCC(O)COc1cn(C)c(=O)c2ccccc12 (stereo not drawn) [R3=H, R4=n-C3 H7]"
category = "class 0"

